Molecular target: T1, recombinant human IL-6 (human, UniProt P05231 30-212)
T1 construct: Flowed in solution over the captured antibodies
T1 sequence (P05231 30-212 limits assumed): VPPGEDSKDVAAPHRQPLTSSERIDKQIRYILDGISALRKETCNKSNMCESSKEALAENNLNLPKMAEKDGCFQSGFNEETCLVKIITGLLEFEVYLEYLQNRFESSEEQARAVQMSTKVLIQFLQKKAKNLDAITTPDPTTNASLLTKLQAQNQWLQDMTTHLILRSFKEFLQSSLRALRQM
Test: SPR (Biacore), supernatant IgG on Protein A, 25 C
metricName: kon
Your reply should be a number followed by the unit it is expressed in.

Use the examples below as a reference point.
binder	kon
anti-IL-6 antibody, heavy chain Y104V, light chain WT (antibody, IgG1, V domains shown, Full IgG1 tested; V domains derived as in m2) VH: EVQLVESGGGLVQPGGSLRLSCAASGFTFSPFAMSWVRQAPGKGLEWVAKISPGGSWTYYSDTVTGRFTFSLDTSKSTAYLQMNSLRAEDTAVYYCARQLWGYVALDIWGQGTLVTVSS VL: DIQLTQSPSSLSASVGDRVTITCSASISVSYMYWYQQKPGKAPKLLIYDMSNLASGVPSRFSGSGSGTDFTLTISSLQPEDFATYYCMQWSGYPYTFGQGTKVEIK	525000 M⁻¹ s⁻¹
anti-IL-6 antibody, heavy chain D107E, light chain WT (antibody, IgG1, V domains shown, Full IgG1 tested; V domains derived as in m2) VH: EVQLVESGGGLVQPGGSLRLSCAASGFTFSPFAMSWVRQAPGKGLEWVAKISPGGSWTYYSDTVTGRFTFSLDTSKSTAYLQMNSLRAEDTAVYYCARQLWGYYALEIWGQGTLVTVSS VL: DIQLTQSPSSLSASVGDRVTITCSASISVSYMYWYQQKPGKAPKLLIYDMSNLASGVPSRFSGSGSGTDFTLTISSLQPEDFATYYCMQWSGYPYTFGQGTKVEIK	509000 M⁻¹ s⁻¹

Please examine the following record next.
Reported kon, binder anti-IL-6 antibody, heavy chain V64A, light chain WT (antibody, IgG1, V domains shown, Full IgG1 tested; V domains derived as in m2) VH: EVQLVESGGGLVQPGGSLRLSCAASGFTFSPFAMSWVRQAPGKGLEWVAKISPGGSWTYYSDTATGRFTFSLDTSKSTAYLQMNSLRAEDTAVYYCARQLWGYYALDIWGQGTLVTVSS VL: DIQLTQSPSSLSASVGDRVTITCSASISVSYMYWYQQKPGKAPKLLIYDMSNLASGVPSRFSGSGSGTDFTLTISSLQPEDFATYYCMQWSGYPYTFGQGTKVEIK : ____
444000 M⁻¹ s⁻¹
